- tested_system: T1, His-tagged human TREM2 ECD (human, UniProt Q9NZC2 19-172)
- T1 construct: Biacore and HDX say only recombinant human TREM2 (ECD); also called recombinant human TREM2; hTREM2
- T1 sequence: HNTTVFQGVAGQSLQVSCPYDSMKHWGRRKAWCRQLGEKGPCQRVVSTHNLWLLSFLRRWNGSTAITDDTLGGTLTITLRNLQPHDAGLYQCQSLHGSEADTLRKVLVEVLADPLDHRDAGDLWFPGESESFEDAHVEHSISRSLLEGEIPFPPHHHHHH
- experiment: SPR (Biacore)
recorded_metric: pKd
Notebook: values listed as pKd are -log10 of the concentration (mol/L).

binder	pKd
CL0020123 (antibody, V domains shown, also called Clone CL0020123) VH: EVQLQQSGAELVRSGASVKLSCTASGFSIEDFYIHWVKQRPEQGLEWIGWIDPENGDSKYAPKFQGKATMTADTSSNTAYLHLSSLTSEDTAVYYCHADHGNYGSTMDYWGQGTSVTVSS VL: DIQMNQSPSSLSASLGDTVTITCHASQHINVWLSWYQQKPGDHPKLLIYKASNLHTGVPSRFSGSGSGTGFTLTISSLQPEDIATYYCQQGQTYPRTFGGGTKLEIK	10.00
CL0020188-1 (antibody, V domains shown, also called Clone CL0020188-1) VH: EVQLVESGGGLVQPGGSLRLSCAASGFTFTDFYMSWVRQAPGKGLEWVSVIRNKANGYTAGYNPSVKGRFTISRDNSKNTLYLQMNSLRAEDTAVYYCARLTYGFDYWGQGTLVTVSS VL: DIVMTQTPLSLPVTPGEPASISCQSSKSLLHSNGKTYLNWYLQKPGQSPQLLIYWMSTRASGVPDRFSGSGSGTDFTLKISRVEAEDVGVYYCQQFLEYPFTFGQGTKVEIK	8.64
CL0020188-7 (antibody, V domains shown, Humanized variant of CL0020188 (hVH NA/graft, hVL TG/graft); also called Clone CL0020188-7) VH: EVQLVESGGGLVQPGGSLRLSCAASGFTFTDFYMSWVRQAPGKGLEWVSVIRNKANAYTAGYNPSVKGRFTISRDNSKNTLYLQMNSLRAEDTAVYYCARLTYGFDYWGQGTLVTVSS VL: DIVMTQTPLSLPVTPGEPASISCQSSKSLLHSTGKTYLNWYLQKPGQSPQLLIYWMSTRASGVPDRFSGSGSGTDFTLKISRVEAEDVGVYYCQQFLEYPFTFGQGTKVEIK	8.00
CL0020123-6 (antibody, V domains shown, Humanized variant of CL0020123 (hVH QGDS/1 m, Vk graft); also called Clone CL0020123-6) VH: QVQLVQSGAEVKKPGASVKVSCKASGFSIEDFYIHWVRQAPGQGLEWMGWIDPEQGDSKYAPKFQGRVTITADTSTSTAYMELSSLRSEDTAVYYCHADHGNYGSTMDYWGQGTLVTVSS VL: DIQMTQSPSSLSASVGDRVTITCHASQHINVWLSWYQQKPGKAPKLLIYKASNLHTGVPSRFSGSGSGTDFTLTISSLQPEDFATYYCQQGQTYPRTFGQGTKVEIK	9.49

Turning now to a further binder:
The reported pKd of the binder CL0020123-7 (antibody, V domains shown, Humanized variant of CL0020123 (hVH NGES/1 m, Vk graft); also called Clone CL0020123-7) VH: QVQLVQSGAEVKKPGASVKVSCKASGFSIEDFYIHWVRQAPGQGLEWMGWIDPENGESKYAPKFQGRVTITADTSTSTAYMELSSLRSEDTAVYYCHADHGNYGSTMDYWGQGTLVTVSS VL: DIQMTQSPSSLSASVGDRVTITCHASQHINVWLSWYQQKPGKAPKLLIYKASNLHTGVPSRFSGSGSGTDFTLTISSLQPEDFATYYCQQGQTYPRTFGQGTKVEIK was 9.82
